- Procedure details: in vivo
- Experimental setup: mouse, plasma, iv, 20 mg/kg
Property: Cmax (µM)

INSERT INTO assay_data (compound_structure_string, number) VALUES
  ('O=[N+]([O-])c1cc([N+](=O)[O-])c2[nH]c3c(N4CCN(CCc5ccc(F)c(F)c5)CC4)nc(CN4CCOCC4)nc3c2c1', 9),
  ('Cn1c2ccnc(N3CCOCC3)c2c2ncnc(N3CCN(CCc4ccc(F)c(F)c4)CC3)c21', 11.9),
  ('Cn1c2cccc(C(N)=O)c2c2nc(CN3CCOCC3)nc(N3CCN(CCc4ccc(F)c(F)c4)CC3)c21', 15);
